Molecular target: hMC5-R (Homo sapiens, UniProt P33032)
Construct: expressed in transfected cells
Sequence (P33032 whole entry): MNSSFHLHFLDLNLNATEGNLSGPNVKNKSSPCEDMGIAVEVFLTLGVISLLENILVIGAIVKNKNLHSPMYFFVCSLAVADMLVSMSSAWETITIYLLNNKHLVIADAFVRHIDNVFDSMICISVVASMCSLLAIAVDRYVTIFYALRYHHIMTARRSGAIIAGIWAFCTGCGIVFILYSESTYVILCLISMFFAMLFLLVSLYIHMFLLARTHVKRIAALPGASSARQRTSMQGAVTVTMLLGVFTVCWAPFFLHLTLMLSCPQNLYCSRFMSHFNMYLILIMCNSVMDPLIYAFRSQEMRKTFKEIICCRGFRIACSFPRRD
Assay: competitive inhibition binding assay, 125I-NDP-α-MSH, membranes
Settings: 1 μM compound; average of triplicates; read-out: Inhibition at 1 μM MC5-R
Listed next: entries and their corresponding inhibition at 1 µM.

[
  {
    "MOLECULE": "NCCCC[C@H]1C(=O)N(CCc2ccc3ccccc3c2)CCN1C(=O)[C@@H](Cc1ccc(Cl)cc1Cl)NC(=O)[C@@H]1CC[C@H](c2ccccc2)N1",
    "ASSAY_SYSTEM": "hMC5-R (Homo sapiens, UniProt P33032)",
    "inhibition at 1 µM (%)": 51
  },
  {
    "MOLECULE": "NCCCC[C@H]1C(=O)N(CCc2ccc3ccccc3c2)CCN1C(=O)[C@@H](Cc1ccc(Cl)cc1Cl)NC(=O)/C=C/c1ccccc1",
    "ASSAY_SYSTEM": "hMC5-R (Homo sapiens, UniProt P33032)",
    "inhibition at 1 µM (%)": 60
  },
  {
    "MOLECULE": "C[C@@H]1CN(C(=O)[C@H](N)Cc2ccc(Cl)cc2)[C@@H](CCCNC(=N)N)CN1CCc1ccc2ccccc2c1",
    "ASSAY_SYSTEM": "hMC5-R (Homo sapiens, UniProt P33032)",
    "inhibition at 1 µM (%)": 52
  },
  {
    "MOLECULE": "Cc1ccc(C[C@@H](N)C(=O)N2C[C@@H](C)N(CCc3ccc4ccccc4c3)C[C@@H]2CCCNC(=N)N)c(Cl)c1",
    "ASSAY_SYSTEM": "hMC5-R (Homo sapiens, UniProt P33032)",
    "inhibition at 1 µM (%)": 72
  },
  {
    "MOLECULE": "NCCCC[C@H]1C(=O)N(CCc2ccc3ccccc3c2)CCN1C(=O)[C@@H](Cc1ccc(Cl)cc1Cl)NC(=O)c1ccc(Oc2ccccc2)cc1",
    "ASSAY_SYSTEM": "hMC5-R (Homo sapiens, UniProt P33032)",
    "inhibition at 1 µM (%)": 51
  },
  {
    "MOLECULE": "C[C@H]1CN(CCc2ccc3ccccc3c2)C[C@H](CCCNC(=N)N)N1C(=O)[C@H](N)Cc1ccc(Cl)cc1Cl [Example 17 (S)-CH3]",
    "ASSAY_SYSTEM": "hMC5-R (Homo sapiens, UniProt P33032)",
    "inhibition at 1 µM (%)": 64
  },
  {
    "MOLECULE": "N=C(N)NCCC[C@H]1CN(CCOc2ccc3ccccc3c2)CCN1C(=O)[C@@H](N)Cc1ccc(Cl)cc1Cl",
    "ASSAY_SYSTEM": "hMC5-R (Homo sapiens, UniProt P33032)",
    "inhibition at 1 µM (%)": 40
  },
  {
    "MOLECULE": "Cc1cc(Cl)ccc1C[C@@H](N)C(=O)N1C[C@@H](C)N(CCc2ccc3ccccc3c2)C[C@@H]1CCCNC(=N)N",
    "ASSAY_SYSTEM": "hMC5-R (Homo sapiens, UniProt P33032)",
    "inhibition at 1 µM (%)": 82
  },
  {
    "MOLECULE": "C[C@@H]1CN(C(=O)[C@H](N)Cc2ccc(Cl)cc2Cl)[C@@H](CCCNC(=N)N)CN1CCc1ccc2ccccc2c1",
    "ASSAY_SYSTEM": "hMC5-R (Homo sapiens, UniProt P33032)",
    "inhibition at 1 µM (%)": 78
  },
  {
    "MOLECULE": "C[C@@H]1CN(CCc2ccc3ccccc3c2)C[C@H](CCCNC(=N)N)N1C(=O)[C@H](N)Cc1ccc(Cl)cc1Cl [Example 17 (R)-CH3]",
    "ASSAY_SYSTEM": "hMC5-R (Homo sapiens, UniProt P33032)",
    "inhibition at 1 µM (%)": 36
  },
  {
    "MOLECULE": "Cc1ccc(C[C@@H](N)C(=O)N2C[C@@H](C)N(CCc3ccc4ccccc4c3)C[C@@H]2CCCNC(=N)N)c(C)c1",
    "ASSAY_SYSTEM": "hMC5-R (Homo sapiens, UniProt P33032)",
    "inhibition at 1 µM (%)": 73
  }
]
